Parameter: kon. Scope: all listed entries.
# target or test system: T1, Fel d1 (B-A)-mmH (cat (Felis domesticus))
# T1 construct: Expressed in CHO cells; also called rFel d1.mmH; rFel d1-mmH
# T1 sequence (chain, as listed by the source limits assumed): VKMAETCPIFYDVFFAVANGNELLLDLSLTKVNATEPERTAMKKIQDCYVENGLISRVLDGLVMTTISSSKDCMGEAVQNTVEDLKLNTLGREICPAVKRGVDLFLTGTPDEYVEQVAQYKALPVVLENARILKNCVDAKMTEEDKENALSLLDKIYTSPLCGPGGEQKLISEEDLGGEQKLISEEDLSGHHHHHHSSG
# measurement protocol: SPR, mAb captured, Fel d1 (B-A)-mmH injected, 25 C;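 further: rate constants obtained by fitting sensorgrams to a one-to-one binding model, Kd computed as koff over kon, half-life derived from koff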
attribute measured: kon (M⁻¹ s⁻¹)

binder | attribute measured | measured
H4H1616N (antibody, human IgG4, V domains shown, human IgG4 Fc (prefix H4H)) VH: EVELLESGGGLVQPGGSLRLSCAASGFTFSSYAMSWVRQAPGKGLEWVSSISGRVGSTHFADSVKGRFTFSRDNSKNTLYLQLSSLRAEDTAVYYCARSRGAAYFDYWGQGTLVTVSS VL: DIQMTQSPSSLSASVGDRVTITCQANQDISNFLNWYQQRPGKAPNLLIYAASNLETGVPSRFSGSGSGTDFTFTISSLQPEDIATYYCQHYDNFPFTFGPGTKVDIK | kon | 229000
H4H1232N (antibody, human IgG4, V domains shown, human IgG4 Fc (prefix H4H); also called REGN1908) VH: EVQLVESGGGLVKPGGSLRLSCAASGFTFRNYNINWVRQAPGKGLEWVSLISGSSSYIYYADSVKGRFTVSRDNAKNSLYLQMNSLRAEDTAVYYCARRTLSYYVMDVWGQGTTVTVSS VL: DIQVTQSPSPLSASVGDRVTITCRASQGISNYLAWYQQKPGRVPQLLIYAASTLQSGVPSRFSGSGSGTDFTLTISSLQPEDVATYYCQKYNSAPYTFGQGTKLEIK | kon | 1.79e+06
H1M1230N (antibody, V domains shown, chimeric, human variable domains with mouse Fc (prefix H1M)) VH: EVQLVESGGGLVQPGGSLRLSCTASGFIFSNFWMTWVRQAPGKGLEWVANIKQDGSETYCVDSVKGRFTISRDHAKNSLFLQMNSLRAEDTAVYYCARGAGTIYYYGMDVWGQGTTVIVSS VL: DIQMTQSPSSVSASVGDRLTITCRASQDISSWLTWYQQKPGKAPNLLIYAASGLQSGVPSRFSGSGSGTDFTLTISNLQPEDFATYYCQQANSFPLTFGQGTRLEIK | kon | 388000
H4H2864P (antibody, human IgG4, V domains shown, human IgG4 Fc (prefix H4H)) VH: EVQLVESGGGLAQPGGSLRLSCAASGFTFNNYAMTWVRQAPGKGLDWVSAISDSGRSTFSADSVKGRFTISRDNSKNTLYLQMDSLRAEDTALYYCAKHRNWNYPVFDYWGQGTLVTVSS VL: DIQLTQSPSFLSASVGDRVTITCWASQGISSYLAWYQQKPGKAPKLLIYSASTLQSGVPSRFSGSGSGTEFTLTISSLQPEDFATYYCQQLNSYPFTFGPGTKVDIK | kon | 537000
H2M1236N (antibody, mouse IgG2, V domains shown, chimeric, human variable domains with mouse IgG2 Fc (prefix H2M)) VH: QVQLQESGPGLVKPSETLSLTCTVSGGSISNYYWSWIRQPPGKGLEWIGYIYYSGRTNYNPSLKSRVTISVDTSKNQFSLKLRSVTAADTAVYYCARHRITRTADSFDYWGQGTLVTVSS VL: DIQMTQSPSSLSASVGDRVTITCQASQDITNYLNWYQQKPGKAPKLLIYDASNLETGVPSRFSGSGSGTDFTFTISSLQPEDVATFYCHQYGDLPYTFGQGTKLEIK | kon | 415000
